system: Prostate

{"columns": ["molecule", "display-unit", "GI50"],
 "data": [
  ["COc1ccc(C(=O)/C=C/c2cc(-c3cc(OC)c(OC)c(OC)c3)n[nH]2)cc1OC [8e]", "nM", 871],
  ["COc1ccc(C(=O)/C=C/c2cc(-c3cc(OC)c(OC)c(OC)c3)n[nH]2)cc1 [7e]", "nM", 1480],
  ["COc1cc(C(=O)/C=C/c2cc(-c3cc(OC)c(OC)c(OC)c3)n[nH]2)cc(OC)c1OC [10e]", "nM", 1480],
  ["COc1cc(-c2cc(/C=C/C(=O)c3ccc(Cl)c(Cl)c3)[nH]n2)cc(OC)c1OC [12e]", "nM", 5890]
]}
